From: patent US20190292179A1

Listed below: IC50 values for each entry.
# EXPERIMENTAL_SYSTEM: HIS-TGFβR2 WT (Homo sapiens)
# RUN_DESCRIPTION: HTRF probe-displacement assay with HIS-TGFβR2 WT
# Assay type: binding
# CONDITIONS_USED: 1 nM HIS-TGFβR2 WT, labeled probe at Kd, 1 hour at room temperature
# Procedure: The reaction is incubated for 1 hour at room temperature and the HTRF signal was measured on an Envision plate reader (Ex: 340 nm; Em: 520 nm/495 nm). Inhibition data were calculated by comparison to no enzyme control reactions for 100% inhibition and vehicle-only reactions for 0% inhibition. […] Compounds were dissolved at 10 mM in dimethylsulfoxide (DMSO) and evaluated at eleven concentrations. […]
Counter-ions that a name gives are not always drawn.
MEASURED_ATTRIBUTE: IC50 (µM)

INSERT INTO measurements (molecule, reported_measurement) VALUES
  ('NC(=O)c1cnc2ccc(-c3c(-c4ccc(F)cc4)n[nH]c3C(F)(F)F)cn12 [Example 106]', 6.66),
  ('Cc1cccc(-c2n[nH]c(C(C)C)c2-c2ccc3ncc(C#N)n3c2)n1 [Example 114]', 0.761),
  ('CC(C)c1[nH]nc(-c2ccc(Cl)cc2)c1-c1ccc2ncc(C(N)=O)n2c1 [Example 76]', 6.59),
  ('Cc1cccc(-c2n[nH]cc2-c2ccc3ncc(C#N)n3n2)n1 [Example 20]', 1.45),
  ('Cc1cc(-c2n[nH]c(C(C)C)c2-c2ccc3ncc(C#N)n3c2)ccc1F [Example 78]', 6.67),
  ('Cc1cccc(-c2nn(C)cc2-c2ccc3ncc(C(N)=O)n3c2)n1 [Example 24]', 0.627),
  ('N#Cc1cnc2ccc(-c3cn(CCO)nc3-c3ccc(F)c(Cl)c3)cn12 [Example 44]', 0.369),
  ('Fc1ccc(-c2n[nH]cc2-c2ccc3nccn3c2)cc1 [Example 34]', 5.02),
  ('Cn1cc(-c2ccc3ncc(C#N)n3c2)c(-c2ccc(F)cc2)n1 [Example 37]', 0.165),
  ('NC(=O)c1cnc2ccc(-c3c(-c4ccc(F)cc4)n[nH]c3C3CC3)cn12 [Example 85]', 0.143),
  ('Cc1cccc(-c2n[nH]c(CO)c2-c2ccc3nccn3c2)n1 [Example 141]', 4.47),
  ('CC(C)c1[nH]nc(-c2ccc(F)cc2)c1-c1ccc2[nH]ncc2c1 [Example 70]', 6.1),
  ('CCc1[nH]nc(-c2cccc(C)n2)c1-c1ccc2nccn2c1 [Example 126]', 3.15),
  ('Fc1ccc(-c2n[nH]cc2-c2ccc3nccn3n2)cc1Cl [Example 39, TFA]', 1.65),
  ('NC(=O)c1cnc2ccc(-c3c[nH]nc3-c3ccc(Cl)cc3)cn12 [Example 47]', 0.709),
  ('Cc1cccc(-c2nn(CC(F)F)cc2-c2ccc3ncc(C#N)n3c2)n1 [Example 27]', 11.4);

###

# EXPERIMENTAL_SYSTEM: HIS-TGFβR2 WT (Homo sapiens, UniProt P37173)
# Sequence (P37173 23-567): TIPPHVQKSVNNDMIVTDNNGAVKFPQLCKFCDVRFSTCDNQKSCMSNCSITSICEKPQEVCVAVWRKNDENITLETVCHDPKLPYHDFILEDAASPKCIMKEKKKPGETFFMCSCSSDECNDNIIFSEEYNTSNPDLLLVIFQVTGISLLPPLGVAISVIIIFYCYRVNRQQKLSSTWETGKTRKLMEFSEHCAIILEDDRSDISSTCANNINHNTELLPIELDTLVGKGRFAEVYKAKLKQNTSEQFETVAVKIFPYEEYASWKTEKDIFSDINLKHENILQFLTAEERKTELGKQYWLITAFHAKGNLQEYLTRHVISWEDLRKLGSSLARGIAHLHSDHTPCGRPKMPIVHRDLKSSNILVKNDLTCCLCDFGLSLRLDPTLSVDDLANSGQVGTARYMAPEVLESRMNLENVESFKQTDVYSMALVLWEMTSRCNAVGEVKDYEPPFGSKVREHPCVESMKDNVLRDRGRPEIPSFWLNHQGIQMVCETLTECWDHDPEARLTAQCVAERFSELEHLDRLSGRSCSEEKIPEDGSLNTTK
# RUN_DESCRIPTION: HTRF probe-displacement assay with HIS-TGFβR2 WT
# Format: binding
# CONDITIONS_USED: 1 nM HIS-TGFβR2 WT, labeled probe at Kd, 1 hour at room temperature
# Method: The reaction is incubated for 1 hour at room temperature and the HTRF signal was measured on an Envision plate reader (Ex: 340 nm; Em: 520 nm/495 nm). Inhibition data were calculated by comparison to no enzyme control reactions for 100% inhibition and vehicle-only reactions for 0% inhibition. […] Compounds were dissolved at 10 mM in dimethylsulfoxide (DMSO) and evaluated at eleven concentrations. […]
MEASURED_ATTRIBUTE: IC50 (µM)

INSERT INTO measurements (compound, experimental_system, unit, reported_measurement) VALUES
  ('CC(=O)Nc1cc(-c2c(-c3ccc(F)cc3)nn3c2COCC3)ccn1', 'HIS-TGFβR2 WT (Homo sapiens, UniProt P37173)', 'µM', 0.105),
  ('Cc1cccc(-c2n[nH]cc2-c2ccc3nccn3n2)n1', 'HIS-TGFβR2 WT (Homo sapiens, UniProt P37173)', 'µM', 0.277),
  ('Cc1nc(-c2nn(C)cc2-c2ccc3ncc(C(N)=O)n3c2)ccc1F', 'HIS-TGFβR2 WT (Homo sapiens, UniProt P37173)', 'µM', 0.396),
  ('CCc1[nH]nc(-c2cccc(C)n2)c1-c1ccc2ncc(C(N)=O)n2c1', 'HIS-TGFβR2 WT (Homo sapiens, UniProt P37173)', 'µM', 0.013),
  ('CCOC(=O)c1cnc2ccc(-c3cn(C)nc3-c3cccc(C)n3)cn12', 'HIS-TGFβR2 WT (Homo sapiens, UniProt P37173)', 'µM', 2.23),
  ('NC(=O)c1cnc2ccc(-c3c[nH]nc3-c3ccc(F)cc3)cn12', 'HIS-TGFβR2 WT (Homo sapiens, UniProt P37173)', 'µM', 0.696),
  ('NC(=O)c1cnc2ccc(-c3c[nH]nc3-c3cccc(C(F)(F)F)n3)cn12', 'HIS-TGFβR2 WT (Homo sapiens, UniProt P37173)', 'µM', 1.83),
  ('CC(C)(O)c1cnc2ccc(-c3c[nH]nc3-c3ccc(F)cc3)cn12', 'HIS-TGFβR2 WT (Homo sapiens, UniProt P37173)', 'µM', 5.34),
  ('N#Cc1cnc2ccc(-c3c[nH]nc3-c3ccc(F)cc3)cn12', 'HIS-TGFβR2 WT (Homo sapiens, UniProt P37173)', 'µM', 0.221);
